Quick reference: furin cleavage Z-score of the listed items.
# tested_on: furin, P09958
# Sequence (P09958 whole entry): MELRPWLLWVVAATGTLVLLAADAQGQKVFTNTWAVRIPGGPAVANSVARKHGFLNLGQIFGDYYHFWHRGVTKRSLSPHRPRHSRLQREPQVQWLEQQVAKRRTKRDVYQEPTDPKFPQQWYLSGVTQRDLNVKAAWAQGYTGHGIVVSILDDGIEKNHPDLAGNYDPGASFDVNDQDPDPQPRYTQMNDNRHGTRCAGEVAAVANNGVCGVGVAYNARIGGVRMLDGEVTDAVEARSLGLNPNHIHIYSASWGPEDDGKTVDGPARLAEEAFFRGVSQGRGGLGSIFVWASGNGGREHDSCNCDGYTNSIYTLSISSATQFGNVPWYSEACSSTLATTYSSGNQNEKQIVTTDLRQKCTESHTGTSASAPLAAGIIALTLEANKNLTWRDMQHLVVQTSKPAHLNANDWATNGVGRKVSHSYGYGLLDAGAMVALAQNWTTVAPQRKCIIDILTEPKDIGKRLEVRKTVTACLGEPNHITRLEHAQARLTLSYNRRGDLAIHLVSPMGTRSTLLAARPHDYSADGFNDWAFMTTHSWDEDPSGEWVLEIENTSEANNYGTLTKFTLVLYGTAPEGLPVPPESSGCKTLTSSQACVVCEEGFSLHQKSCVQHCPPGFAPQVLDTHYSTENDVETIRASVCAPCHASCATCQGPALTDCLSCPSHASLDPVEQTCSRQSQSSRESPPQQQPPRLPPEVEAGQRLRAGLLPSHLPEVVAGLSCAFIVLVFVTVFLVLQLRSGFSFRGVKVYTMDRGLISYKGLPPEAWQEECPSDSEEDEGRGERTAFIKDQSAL
# experiment_notes: furin cleavage Z-score vs untreated control; higher = more cleavage, active = 3.5 or more, inactive = 1 or less, 8 variable residues between constant flanks;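 further: purified furin at 1:10 enzyme:substrate in 50 mM HEPES pH 7.5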
# setup_conditions: 7.5 min
Some of the results follow. How many sequences the whole screen found active is unknown.
Answer as a number with no unit attached.

Examples with their reported furin cleavage Z-score follow.
[
  {
    "sequence_input": "CALHSRNKRLAGNASASA [FS-607]",
    "furin cleavage Z-score": 7.17
  },
  {
    "sequence_input": "CALHSRPQRLAGNASASA [FS-939]",
    "furin cleavage Z-score": 0.578
  },
  {
    "sequence_input": "CALQKRSSRHAGNASASA [FS-2631]",
    "furin cleavage Z-score": 5.41
  },
  {
    "sequence_input": "CAIGKRSVEYAGNASASA [FS-1984]",
    "furin cleavage Z-score": 1.53
  },
  {
    "sequence_input": "CAKPARVSKDAGNASASA [FS-259]",
    "furin cleavage Z-score": -0.289
  }
]

What furin cleavage Z-score value was documented for this sequence, CADPMEECSQAGNASASA [HC1819] ?
0.273

May I ask what furin cleavage Z-score has been recorded for CAQTKQSGENAGNASASA [HC948] ?
-0.725

Numbers sourced from the supplement of paper PMC3545927.
